Assign MIC P. aeruginosa 068 to each entry below.
# System: Pseudomonas aeruginosa
# Assay type: cell-based
Bridge positions count the residues as written; N and C are the ends. Square brackets hold non-standard residues; d marks the D form. Peptide text beside a SMILES is read from it. * marks the point of attachment. ξ: configuration not given here. dPhe(4-CN) = N#Cc1ccc(C[C@@H](N)C(=O)O)cc1; X13 = NCC[C@H](OCc1ccc(Cl)cc1)C(=O)*; Octanoyl(6-Me) = CCC(C)CCCCC(=O)*; dCha = N[C@H](CC1CCCCC1)C(=O)O; Thr(3ξ) = CC(O)[C@H](N)C(=O)O; X21 = NCC(CC1CCCCC1)C(=O)*; X22 = NC(CCC(=O)*)C1CCCCC1; Dab = NCC[C@H](N)C(=O)O; Dap = NC[C@H](N)C(=O)O
Answers are plain numbers, in µg/mL.

Examples with answers:
What the record says about CC(C)C[C@@H]1NC(=O)[C@@H](CC2CCCCC2)NC(=O)[C@H](CCN)NC(=O)[C@@H](NC(=O)[C@H](CN)NC(=O)[C@@H](NC(=O)[C@H](CCN)OCc2ccc(Cl)cc2)[C@@H](C)O)CCNC(=O)[C@H]([C@@H](C)O)NC(=O)[C@H](CCN)NC(=O)[C@H](CCN)NC1=O [Example 74] (X13-T[Dap][Dab][Dab][dCha]L[Dab][Dab]T; lactam 3-C) : MIC P. aeruginosa 068 is 4

response.value for CC(C)C[C@@H]1NC(=O)[C@@H](CC2CCCCC2)NC(=O)[C@H](CCN)NC(=O)[C@@H](NC(=O)[C@H](CN)NC(=O)[C@@H](NC(=O)C(CCN)Cc2cccc(F)c2)C(C)O)CCNC(=O)[C@H]([C@@H](C)O)NC(=O)[C@H](CCN)NC(=O)[C@H](CCN)NC1=O (single isomer, unassigned; isomer 2) [Example 45] (field: MIC P. aeruginosa 068) = 1

Value of measured MIC P. aeruginosa 068 for the entry CC(C)C[C@@H]1NC(=O)[C@@H](CC2CCCCC2)NC(=O)[C@H](CCN)NC(=O)[C@@H](NC(=O)[C@H](CCN)NC(=O)[C@@H](NC(=O)C(CCN)C2CCCCC2)[C@@H](C)O)CCNC(=O)[C@H]([C@@H](C)O)NC(=O)[C@H](CCN)NC(=O)[C@H](CCN)NC1=O (single isomer, unassigned; isomer 2) [Example 69] : 4

Record CC(C)C[C@@H]1NC(=O)[C@@H](CC2CCCCC2)NC(=O)[C@H](CCN)NC(=O)[C@@H](NC(=O)[C@H](CN)NC(=O)[C@@H](NC(=O)CCC(N)C2CCCCC2)[C@@H](C)O)CCNC(=O)[C@H]([C@@H](C)O)NC(=O)[C@H](CCN)NC(=O)[C@H](CCN)NC1=O (stereo partly drawn) [Example 63] (X22-T[Dap][Dab][Dab][dCha]L[Dab][Dab]T; lactam 3-C) , field MIC P. aeruginosa 068: 8

So for CC(C)C[C@@H]1NC(=O)[C@@H](CC2CCCCC2)NC(=O)[C@H](CCN)NC(=O)[C@@H](NC(=O)[C@H](CN)NC(=O)[C@@H](NC(=O)C(CN)CC2CCCCC2)C(C)O)CCNC(=O)[C@H]([C@@H](C)O)NC(=O)[C@H](CCN)NC(=O)[C@H](CCN)NC1=O (stereo partly drawn) [Example 31] (X21-[Thr(3ξ)][Dap][Dab][Dab][dCha]L[Dab][Dab]T; lactam 3-C) , the logged MIC P. aeruginosa 068 turned out to be 2

New cases:
Entry CCC(C)CCCCC(=O)N[C@@H](CCN)C(=O)N[C@H](C(=O)N[C@@H](CCN)C(=O)N[C@H]1CCNC(=O)[C@H]([C@@H](C)O)NC(=O)[C@H](CCN)NC(=O)[C@H](CCN)NC(=O)[C@H](CC(C)C)NC(=O)[C@@H](Cc2ccc(C#N)cc2)NC(=O)[C@H](CCN)NC1=O)C(C)O (stereo partly drawn) [Example 24, Polymyxin B[D-(4-cyano)Phe]-6] ({Octanoyl(6-Me)}-[Dab][Thr(3ξ)][Dab][Dab][Dab][dPhe(4-CN)]L[Dab][Dab]T; lactam 4-C) , MIC P. aeruginosa 068 reported as 32

----------
I'd appreciate it if you could supply MIC A. baumanii ATCC BAA-747 values for the items below.
# System: Acinetobacter baumannii
# Type: cell-based
# Reported conditions: strain ATCC BAA-747
# Procedure: To evaluate the potency and spectrum of the compounds, susceptibility testing was performed against up to nine strains of each of the Gram negative pathogens, Escherichia coli, Pseudomonas aeruginosa, Klebsiella pneumoniae and Acinetobacter baumannii. The values in Table 2 are MIC (μg/mL) against strains of E. coli, K. pneumoniae, P. aeruginosa and A. baumanii, including strains which show elevated MICs to Polymyxin. The values in Table 2A are MIC (μg/mL). […]
Bridge positions count the residues as written; N and C are the ends. Square brackets hold non-standard residues; d marks the D form. Peptide text beside a SMILES is read from it. * marks the point of attachment. ξ: configuration not given here. dCha = N[C@H](CC1CCCCC1)C(=O)O; Thr(3ξ) = CC(O)[C@H](N)C(=O)O; X7 = NCC(CC(=O)*)c1ccccc1; Dab = NCC[C@H](N)C(=O)O; Dap = NC[C@H](N)C(=O)O
Numbers only, in µg/mL.

# count of solved cases: 5
Per the record, CC(C)C[C@@H]1NC(=O)[C@@H](CC2CCCCC2)NC(=O)[C@H](CCN)NC(=O)[C@@H](NC(=O)[C@H](CN)NC(=O)[C@@H](NC(=O)CC(CN)Cc2ccccc2)[C@@H](C)O)CCNC(=O)[C@H]([C@@H](C)O)NC(=O)[C@H](CCN)NC(=O)[C@H](CCN)NC1=O (single isomer, unassigned; isomer 1) [Example 58] has MIC A. baumanii ATCC BAA-747 of 0.03

Reported MIC A. baumanii ATCC BAA-747 ( CC(C)C[C@@H]1NC(=O)[C@@H](CC2CCCCC2)NC(=O)[C@H](CCN)NC(=O)[C@@H](NC(=O)[C@H](CCN)NC(=O)[C@@H](NC(=O)CC(CN)Cc2ccccc2)[C@@H](C)O)CCNC(=O)[C@H]([C@@H](C)O)NC(=O)[C@H](CCN)NC(=O)[C@H](CCN)NC1=O (single isomer, unassigned; isomer 2) [Example 67] ) = 0.25

Item: CC(C)C[C@@H]1NC(=O)[C@@H](CC2CCCCC2)NC(=O)[C@H](CCN)NC(=O)[C@@H](NC(=O)[C@H](CN)NC(=O)[C@@H](NC(=O)CC(CN)Cc2ccccc2)[C@@H](C)O)CCNC(=O)[C@H]([C@@H](C)O)NC(=O)[C@H](CCN)NC(=O)[C@H](CCN)NC1=O (single isomer, unassigned; isomer 2) [Example 59] | MIC A. baumanii ATCC BAA-747: 0.03

Short answer for CC(C)C[C@@H]1NC(=O)[C@@H](CC2CCCCC2)NC(=O)[C@H](CCN)NC(=O)[C@@H](NC(=O)[C@H](CCN)NC(=O)[C@@H](NC(=O)CC(CN)CC2CCCCC2)[C@@H](C)O)CCNC(=O)[C@H]([C@@H](C)O)NC(=O)[C@H](CCN)NC(=O)[C@H](CCN)NC1=O (single isomer, unassigned) [Example 72] : MIC A. baumanii ATCC BAA-747 was 0.25

// sample CC(C)C[C@@H]1NC(=O)[C@@H](CC2CCCCC2)NC(=O)[C@H](CCN)NC(=O)[C@@H](NC(=O)[C@H](CCN)NC(=O)[C@@H](NC(=O)CC(CN)C2CCCCC2)[C@@H](C)O)CCNC(=O)[C@H]([C@@H](C)O)NC(=O)[C@H](CCN)NC(=O)[C@H](CCN)NC1=O (single isomer, unassigned; isomer 2) [Example 87] , its MIC A. baumanii ATCC BAA-747 was 0.25

Provide each entry's MIC A. baumanii ATCC BAA-747 from the list below.
1. CC(C)C[C@@H]1NC(=O)[C@@H](CC2CCCCC2)NC(=O)[C@H](CCN)NC(=O)[C@@H](NC(=O)[C@H](CCN)NC(=O)[C@@H](NC(=O)CC(CN)c2ccccc2)[C@@H](C)O)CCNC(=O)[C@H]([C@@H](C)O)NC(=O)[C@H](CCN)NC(=O)[C@H](CCN)NC1=O (single isomer, unassigned; isomer 2) [Example 57]
2. CC(C)C[C@@H]1NC(=O)[C@@H](CC2CCCCC2)NC(=O)[C@H](CCN)NC(=O)[C@@H](NC(=O)[C@H](CN)NC(=O)[C@@H](NC(=O)CC(CN)c2ccccc2)C(C)O)CCNC(=O)[C@H]([C@@H](C)O)NC(=O)[C@H](CCN)NC(=O)[C@H](CCN)NC1=O (stereo partly shown) [Example 39] (X7-[Thr(3ξ)][Dap][Dab][Dab][dCha]L[Dab][Dab]T; lactam 3-C)
3. CC(C)C[C@@H]1NC(=O)[C@@H](CC2CCCCC2)NC(=O)[C@H](CCN)NC(=O)[C@@H](NC(=O)[C@H](CN)NC(=O)[C@@H](NC(=O)CC(CN)C2CCCCC2)C(C)O)CCNC(=O)[C@H]([C@@H](C)O)NC(=O)[C@H](CCN)NC(=O)[C@H](CCN)NC1=O (single isomer, unassigned; isomer 1) [Example 42]
4. CC(C)C[C@@H]1NC(=O)[C@@H](CC2CCCCC2)NC(=O)[C@H](CCN)NC(=O)[C@@H](NC(=O)[C@H](CCN)NC(=O)[C@@H](NC(=O)CC(CN)c2ccccc2)[C@@H](C)O)CCNC(=O)[C@H]([C@@H](C)O)NC(=O)[C@H](CCN)NC(=O)[C@H](CCN)NC1=O (single isomer, unassigned; isomer 1) [Example 56]

**Result**
1. 1
2. 0.06
3. 0.125
4. 0.125

Please go through the list and note MIC A. baumanii ATCC BAA-747 for each compound.
1. CC(C)C[C@@H]1NC(=O)[C@@H](CC2CCCCC2)NC(=O)[C@H](CCN)NC(=O)[C@@H](NC(=O)[C@H](CCN)NC(=O)[C@@H](NC(=O)CC(CN)Cc2ccccc2)[C@@H](C)O)CCNC(=O)[C@H]([C@@H](C)O)NC(=O)[C@H](CCN)NC(=O)[C@H](CCN)NC1=O (single isomer, unassigned; isomer 1) [Example 66]
2. CC(C)C[C@@H]1NC(=O)[C@@H](CC2CCCCC2)NC(=O)[C@H](CCN)NC(=O)[C@@H](NC(=O)[C@H](CCN)NC(=O)[C@@H](NC(=O)CC(CN)CC2CCCCC2)[C@@H](C)O)CCNC(=O)[C@H]([C@@H](C)O)NC(=O)[C@H](CCN)NC(=O)[C@H](CCN)NC1=O (single isomer, unassigned; isomer 1) [Example 91]

**Result**
1. 0.125
2. 0.25

State recorded MIC A. baumanii ATCC BAA-747 for all listed compounds.
1. CC(C)C[C@@H]1NC(=O)[C@@H](CC2CCCCC2)NC(=O)[C@H](CCN)NC(=O)[C@@H](NC(=O)[C@H](CN)NC(=O)[C@@H](NC(=O)CC(CN)C2CCCCC2)C(C)O)CCNC(=O)[C@H]([C@@H](C)O)NC(=O)[C@H](CCN)NC(=O)[C@H](CCN)NC1=O (single isomer, unassigned; isomer 2) [Example 43]
2. CC(C)C[C@@H]1NC(=O)[C@@H](CC2CCCCC2)NC(=O)[C@H](CCN)NC(=O)[C@@H](NC(=O)[C@H](CCN)NC(=O)[C@@H](NC(=O)CC(CN)C2CCCCC2)[C@@H](C)O)CCNC(=O)[C@H]([C@@H](C)O)NC(=O)[C@H](CCN)NC(=O)[C@H](CCN)NC1=O (single isomer, unassigned; isomer 1) [Example 86]

**Result**
1. 0.125
2. 0.125
